System: LB2241-RCC;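 note: cell viability assay measuring how strongly the cultured human renal carcinoma line is prevented from growing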
Assay: cells
Assay type: functional, cell-based, Homo sapiens
Conditions: Homo sapiens, LB2241-RCC
Description: SANGER: Inhibition of human LB2241-RCC cell growth in a cell viability assay.
Measured IC50, listed per entry for reference.
Unit µM implied. Number only.

Would you please look over these solved cases?
Compound	System Name	IC50, µM
O=C(/C=C/c1ccccc1)NC(NC(=S)Nc1cccc2cccnc12)C(Cl)(Cl)Cl (stereo unspecified)	LB2241-RCC	4.99
CCOc1nc(NC(=O)Cc2cc(OC)ccc2OC)cc(N)c1C#N	LB2241-RCC	6.58

Q: Need IC50 of COC(=O)CNC(=O)C(=O)OC , thanks.
Result: 537

Q: Need IC50 of Nc1ccn([C@@H]2O[C@H](CO)[C@@H](O)[C@@H]2O)c(=O)n1 , thanks.
Result: 0.0553

Q: Need IC50 of C=CCNC1=C2C[C@@H](C)C[C@H](OC)[C@H](O)[C@@H](C)/C=C(\C)[C@H](OC(N)=O)[C@@H](OC)/C=C\C=C(/C)C(=O)NC(=CC1=O)C2=O , thanks.
Result: 0.101

###

System: RCC10RGB;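 note: growth inhibition of human RCC10RGB cells, read out by a cell viability assay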
Assay: cells
Assay type: functional, cell-based, Homo sapiens
Details: Homo sapiens, RCC10RGB
Description: SANGER: Inhibition of human RCC10RGB cell growth in a cell viability assay.
pIC50: −log10 of the molar value.
Measured pIC50, listed per entry for reference.

Would you please look over these solved cases?
Molecule	Quantity Kind	Val
Cn1cncc1[C@@](N)(c1ccc(Cl)cc1)c1ccc2c(c1)c(-c1cccc(Cl)c1)cc(=O)n2C	pIC50	5.07
COc1cc(F)c(F)c(Nc2ccc(I)cc2F)c1NS(=O)(=O)C1(CC(O)CO)CC1 (stereo unspecified)	pIC50	< 5.30

Q: Need pIC50 of O=C(/C=C/c1ccccc1)NC(NC(=S)Nc1cccc2cccnc12)C(Cl)(Cl)Cl (stereo unspecified) , thanks.
Result: < 4.80

Q: Need pIC50 of CCC(=O)N1CCN(c2ccc(-n3c(=O)ccc4cnc5ccc(-c6cnc7ccccc7c6)cc5c43)cc2C(F)(F)F)CC1 , thanks.
Result: < 5.92

Q: Need pIC50 of CS(=O)(=O)CCNCc1ccc(-c2ccc3ncnc(Nc4ccc(OCc5cccc(F)c5)c(Cl)c4)c3c2)o1 , thanks.
Result: < 5.70

Q: Need pIC50 of Cc1cnc(-c2cnc(NCCNc3ccc(C#N)cn3)nc2-c2ccc(Cl)cc2Cl)[nH]1 , thanks.
Result: < 5.59

###

System: LOUCY;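 note: growth inhibition of human LOUCY cells, read out with a cell viability assay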
Experiment: cells
Type: functional, cell-based
Conditions: Homo sapiens
Description: SANGER: Inhibition of human LOUCY cell growth in a cell viability assay.
pIC50: −log10 of the molar value.
Measured pIC50, listed per entry for reference.

Molecule	pIC50
CO[C@H]1C[C@@H]2CC[C@@H](C)[C@@](O)(O2)C(=O)C(=O)N2CCCC[C@H]2C(=O)O[C@H]([C@H](C)C[C@@H]2CC[C@@H](O)[C@H](OC)C2)CC(=O)[C@H](C)/C=C(\C)[C@@H](O)[C@@H](OC)C(=O)[C@H](C)C[C@H](C)/C=C/C=C/C=C/1C [SIROLIMUS]	< 7.00
CCC1=C[C@@H]2CN(C1)Cc1c([nH]c3ccccc13)[C@@](C(=O)OC)(c1cc3c(cc1OC)N(C)[C@H]1[C@@](O)(C(=O)OC)[C@H](OC(C)=O)[C@]4(CC)C=CCN5CC[C@]31[C@@H]54)C2 [VINORELBINE]	8.01
O=C(/C=C/c1ccccc1)NC(NC(=S)Nc1cccc2cccnc12)C(Cl)(Cl)Cl (stereo unspecified) [SALUBRINAL]	< 4.80

Q: Need pIC50 of CS(=O)(=O)CCNCc1ccc(-c2ccc3ncnc(Nc4ccc(OCc5cccc(F)c5)c(Cl)c4)c3c2)o1 [LAPATINIB] , thanks.
Result: < 5.70

Q: Need pIC50 of Cn1cncc1[C@@](N)(c1ccc(Cl)cc1)c1ccc2c(c1)c(-c1cccc(Cl)c1)cc(=O)n2C [TIPIFARNIB] , thanks.
Result: < 4.80

Q: Need pIC50 of Cc1cc(Nc2cc(N3CCN(C)CC3)nc(Sc3ccc(NC(=O)C4CC4)cc3)n2)n[nH]1 [TOZASERTIB] , thanks.
Result: < 5.70
